Target: T1, activated Protein C (APC) (human, UniProt P04070 43-197; P04070 212-461)
T1 construct: also called human plasma APC
T1 sequence (P04070 43-197, chain 1 of 2): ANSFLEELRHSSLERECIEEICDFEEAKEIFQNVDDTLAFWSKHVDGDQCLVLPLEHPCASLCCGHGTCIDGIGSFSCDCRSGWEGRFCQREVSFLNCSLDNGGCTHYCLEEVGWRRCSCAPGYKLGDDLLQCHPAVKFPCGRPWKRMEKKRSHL
T1 sequence (P04070 212-461, chain 2 of 2): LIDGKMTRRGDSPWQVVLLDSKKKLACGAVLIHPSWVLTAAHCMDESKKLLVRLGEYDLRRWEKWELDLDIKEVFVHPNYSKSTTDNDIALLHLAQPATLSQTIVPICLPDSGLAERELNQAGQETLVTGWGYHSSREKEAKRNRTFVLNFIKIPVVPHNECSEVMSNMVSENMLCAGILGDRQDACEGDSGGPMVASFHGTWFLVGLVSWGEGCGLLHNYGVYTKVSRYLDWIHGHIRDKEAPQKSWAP
Experiment: ratio of rate constants, APC over thrombin
MEASUREMENT_LABEL: inhibition of APC/thrombin (fold)
Give bare numbers, in fold.

Asked: Supply measured inhibition of APC/thrombin of A22 4.H11 PCI (P4KP2RP1′H) (other, As A22 WT PCI) APSSRRDFTFDLYRALASAAPSQNIFFSPVSISMSLAMLSLGAGSSTKMQILEGLGLNLQKSSEKELHRGFQQLLQELNQPRDGFQLSLGNALFTDLVVDLQDTFVSAMKTLYLADTFPTNFRDSAGAMKQINDYVAKQTKGKIVDLLKNLDSNAVVIMVNYIFFKAKWETSFNHKGTQEQDFYVTSETVVRVPMMSREDQYHYLLDRNLSCRVVGVPYQGNATALFILPSEGKMQQVENGLSEKTLRKWLKMFKKRQLELYLPKFSIEGSYQLEKVLPSLGISNVFTSHADLSGISNHSNIQVSEMVHKAVVEVDESGTRAAAATGTIKTRRHARLNSQRLVFNRPFLMFIVDNNILFLGKVNRP in your reply.
Given back: 21.4
